Reference source for all entries: patent US20230114241A1

experimentalSystem: human sphingosine-1-phosphate receptor 1 (S1P1) (Homo sapiens, UniProt P21453)
Sequence (P21453 whole entry): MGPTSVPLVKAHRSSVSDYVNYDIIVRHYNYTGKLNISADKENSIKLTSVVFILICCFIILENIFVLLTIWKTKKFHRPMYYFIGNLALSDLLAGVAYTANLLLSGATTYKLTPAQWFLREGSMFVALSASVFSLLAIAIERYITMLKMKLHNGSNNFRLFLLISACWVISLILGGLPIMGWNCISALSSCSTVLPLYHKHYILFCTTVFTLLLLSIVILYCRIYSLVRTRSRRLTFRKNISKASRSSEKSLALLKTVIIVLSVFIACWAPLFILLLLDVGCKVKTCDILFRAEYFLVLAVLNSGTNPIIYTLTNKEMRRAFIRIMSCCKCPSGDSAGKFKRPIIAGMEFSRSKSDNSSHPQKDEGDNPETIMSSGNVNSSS
measurementProtocol: Inhibition of cAMP production (HTRF cAMP HiRange), S1P1 CHO-K1 cells
Format: cell-based
conditionSet: inhibition of cAMP production, S1P1; read-out: hS1P1 CAMP pEC50 (converted)
experimentalReadout: EC50

The reported EC50 of the compound CC(C)Oc1ccc(-c2ccc(-c3ccc4c(c3)nnn4C(C)C)cc2)cc1C#N [Compound 506] was < 316 nM

The reported EC50 of the compound Cc1ccc2oc(-c3ccc4c(c3)nnn4CC(C)C)nc2c1 [Compound 437] was < 316 nM

The reported EC50 of the compound Cc1ccccc1-c1noc(-c2cnc3c(c2)nnn3C(C)C)n1 [Compound 382] was < 316 nM

The reported EC50 of the compound Cc1ccccc1-c1c[nH]c(-c2ccc3c(c2)nnn3C(C)C)c1 [Compound 516] was > 316 nM

Continuing:
The reported EC50 of the compound N#Cc1cc(-c2nnc(-c3ccc4c(c3)CCC(=O)N4)o2)ccc1NCCF [Compound 476] was < 316 nM

The reported EC50 of the compound CC(C)n1nnc2cc(-c3cc(-c4ccccc4F)c[nH]3)ccc21 [Compound 542] was > 316 nM

The reported EC50 of the compound Cc1cn(C)nc1-c1noc(-c2ccc3c(c2)nnn3CC(C)(C)O)n1 [Compound 518] was > 316 nM

The reported EC50 of the compound CCC1(CC)CC(=O)c2cc(-c3nc(-c4cncc(S(N)(=O)=O)c4)no3)ccc2O1 [Compound 603] was < 316 nM

The reported EC50 of the compound COc1cc(NC(C)=O)ccc1-c1noc(-c2ccc3c(c2)nnn3C(C)C)n1 [Compound 532] was < 316 nM

----------
experimentalSystem: human sphingosine-1-phosphate receptor 1 (S1P1) (Homo sapiens, UniProt P21453)
measurementProtocol: Inhibition of cAMP production (HTRF cAMP HiRange), S1P1 CHO-K1 cells
Type: cell-based
conditionSet: inhibition of cAMP production, S1P1; read-out: hS1P1 CAMP pEC50 (converted)
experimentalReadout: EC50

The reported EC50 of the compound `CC(C)Nc1ccc(-c2nc(-c3ccc4c(c3)CCNC4=O)no2)cc1C#N` was < 316 nM

The reported EC50 of the compound `N#Cc1cc(-c2nc(-c3ccc4oc(=O)[nH]c4c3)no2)ccc1NCC1CC1` was < 316 nM

The reported EC50 of the compound `Cc1ccccc1-c1csc(-c2cnc3c(ccn3C(C)C)c2)n1` was > 316 nM

The reported EC50 of the compound `CC(C)n1nnc2cc(-c3nc4c(o3)CCCc3ccccc3-4)ccc21` was > 316 nM

The reported EC50 of the compound `COc1cccnc1-c1nc(-c2ccc3c(c2)nnn3C(C)C)no1` was < 316 nM

The reported EC50 of the compound `CC(C)Nc1ccc(-c2nnc(-c3ccc4c(c3)C(=O)NCC4)o2)cc1C#N` was < 316 nM

The reported EC50 of the compound `CCC1(CC)CC(=O)c2cc(-c3nc(-c4cncc(C(F)(F)F)c4)no3)ccc2O1` was > 316 nM

The reported EC50 of the compound `COc1cccc2nc(-c3ccc4c(c3)nnn4C(C)C)oc12` was < 316 nM

The reported EC50 of the compound `CC(C)(CO)n1nnc2cc(-c3noc(-c4cnccc4C(F)(F)F)n3)ccc21` was > 316 nM

The reported EC50 of the compound `Cn1cnc2ccc(-c3nnc(-c4ccc(NCC(F)F)c(C#N)c4)o3)cc21` was < 316 nM

The reported EC50 of the compound `CC(C)(CO)Cn1nnc2cc(-c3noc(-c4ccncc4C(F)(F)F)n3)ccc21` was > 316 nM

The reported EC50 of the compound `Cc1nc2cc(-c3nnc(-c4ccc(NC(C)C)c(C#N)c4)o3)ccc2[nH]1` was < 316 nM

The reported EC50 of the compound `CC(C)n1nnc2cc(-c3nc4c(o3)CCc3sccc3-4)ccc21` was < 316 nM
